test: modulators of S6 phosphorylation in cells, primary screen, cell-based, A549, cytoblot, luminescence, serum-stimulated (AID 1158); details: A549 phospho-S6 cytoblot, 5 h, higher = more signal;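 note: serum-stimulated A549 lung adenocarcinoma cells; signal is phosphorylated S6 detected by cytoblot immunostaining with HRP secondary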
// classify(record): look up z-score in ranges bin 1 (below -0.5), bin 2 (-0.5 to below -0.2), bin 3 (-0.2 or more)

Answered examples (5):
C=C(C)[C@@H]1CC=C(C(O)C2C=CC3C(=O)N(c4ccccc4)C(=O)C3N2Nc2ccc(C#N)cc2)CC1 (stereo not given in full)
bin 1
COc1ccc([Si](C)(C)[C@@H]2[C@@H](CC(=O)N3Cc4ccccc4C[C@H]3CO)O[C@]3(C(=O)N(c4ccccc4)c4ccccc43)[C@H]2C)cc1
bin 3
COCCOC(=O)N1C(=O)[C@@]2(c3cc(C#CCNC(N)=O)ccc31)[C@H](c1ccc(O)cc1)N1[C@H](c3ccccc3)[C@H](c3ccccc3)OC(=O)[C@H]1[C@@H]2C(=O)N1CCN(c2ncccn2)CC1
bin 2
CCCCC(=O)N(CCN1CCOCC1)[C@@H]1CC(C(=O)NCCO)=C[C@H](Oc2c(I)cc(CO)cc2OC)[C@H]1O
bin 3
COCCOC(=O)N1C(=O)[C@@]2(c3cc(C#CCC(C(=O)OC)C(=O)OC)ccc31)[C@H](c1ccc(O)cc1)N1[C@H](c3ccccc3)[C@H](c3ccccc3)OC(=O)[C@H]1[C@@H]2C(=O)NC[C@H](O)c1ccccc1
bin 3

Which category fits this record: COc1cc(NN2C(C(O)c3ccccc3)C=CC3C(=O)N(C)C(=O)C32)cc(OC)c1OC (stereo not given)
bin 3
